All values here come from patent US20110071158A1.

Target: Xenopus laevis Aurora B/INCENP complex (Xenopus laevis, UniProt Q6DE08)
Construct: equipped at the N-terminal position with a GST tag (amino acids 60-361); GST (N, cleaved yes)
Sequence (Q6DE08 60-361): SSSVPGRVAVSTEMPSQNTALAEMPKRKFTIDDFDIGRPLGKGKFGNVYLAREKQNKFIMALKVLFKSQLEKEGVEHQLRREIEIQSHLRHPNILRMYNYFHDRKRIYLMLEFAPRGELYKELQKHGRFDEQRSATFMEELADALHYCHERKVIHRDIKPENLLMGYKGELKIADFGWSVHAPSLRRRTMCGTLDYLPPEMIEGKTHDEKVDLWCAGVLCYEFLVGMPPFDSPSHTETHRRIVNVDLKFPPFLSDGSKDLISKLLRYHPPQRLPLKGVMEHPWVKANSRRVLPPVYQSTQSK
Sequence (O13024 790-847 partner): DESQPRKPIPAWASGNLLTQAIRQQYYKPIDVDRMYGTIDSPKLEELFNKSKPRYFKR
Experiment: Aurora-B kinase assay (radioactive enzyme inhibition)
readout-label: IC50 (µM)

given-smiles: CNC(=O)c1cc(OC)c(Nc2ncc(C(F)(F)F)c(N[C@@H]3CCCC[C@H]3NS(C)(=O)=O)n2)cc1Cl
IC50 (µM): 1.07

(P) CCN([C@@H]1CCCC[C@H]1Nc1nc(Nc2ccc(C(=O)NC3CCN(C)CC3)cc2OC)ncc1C(F)(F)F)S(C)(=O)=O
(Q) COc1cc(C(=O)NC2CCN(C)CC2)c(F)cc1Nc1ncc(Cl)c(N[C@@H]2CCC[C@H]2N(C)S(C)(=O)=O)n1
Hi, I'm comparing two records. Which one has the lower IC50, P or Q ? Please indicate the selected item by its label.
P
(P: 0.264 µM, Q: 0.417 µM)

(A) COc1cc(NC(=O)C2CCN(C)CC2)ccc1Nc1ncc(C(F)(F)F)c(N[C@@H]2CCCC[C@H]2N(C)S(C)(=O)=O)n1
(B) COc1cc(C(=O)NC2CCN(C)CC2)c(C)cc1Nc1ncc(C(F)(F)F)c(N[C@@H]2CCCC[C@H]2N(C)S(C)(=O)=O)n1
Hi, I'm comparing A with B and wondering which one has the bigger number for IC50. Any idea? Output the label that corresponds to your choice.
B
(B: 4.04 µM, A: 0.245 µM)

====

Target: PTK2 enzyme (Homo sapiens)
Construct: purchased Invitrogen PV3832
Experiment: PTK2 enzyme test, Assay 1 (DELFIA, poly-Glu-Tyr substrate, antibody PT60)
Type: biochemical
Conditions: Assay 1 (values without *); 1 h pre-incubation, 2% DMSO
pIC50: −log10 of the molar value.
readout-label: pIC50

Example entries and their recorded answers appear below.
compound: COc1cc(C(=O)NC2CCN(C)CC2)ccc1Nc1ncc(C(F)(F)F)c(N[C@H]2CCCC[C@@H]2NC(C)=O)n1 [Example I-35]
pIC50: 7.09
//
compound: COc1cc(C(=O)NC2CCN(C(C)C)CC2)ccc1Nc1ncc(C(F)(F)F)c(N[C@@H]2CCCC[C@H]2N(C)C(C)=O)n1 [Example I-109]
pIC50: 9.00
//
compound: COc1cc(N2CCN(C)CC2)ccc1Nc1ncc(C(F)(F)F)c(N[C@@H]2CCCC[C@H]2NC(C)=O)n1 [Example I-29]
pIC50: 9.00
//
compound: COc1cc(C(=O)NC2CCN(C)CC2)ccc1Nc1ncc(C(F)(F)F)c(N[C@@H]2CCCC[C@H]2NC(=O)NC(C)(C)C)n1 [Example I-18]
pIC50: 7.34

(a) CCN([C@@H]1CCCC[C@H]1Nc1nc(Nc2ccc(NC(C)=O)c(C)c2)ncc1C(F)(F)F)S(C)(=O)=O [Example I-188]
(b) COc1cc(C(=O)NC2CCN(C3CC3)CC2)ccc1Nc1ncc(Cl)c(N[C@@H]2CCCC[C@H]2NC(C)=O)n1 [Example I-63]
(c) COCC(=O)N[C@@H]1CCCC[C@H]1Nc1nc(Nc2ccc(N3CCN(C)CC3)cc2OC)ncc1C(F)(F)F [Example I-31]
Hey, quick one: sort these by pIC50, largest value first please. Return the labels ranked in the requested order, please.
b, c, a

====

Biological target: Xenopus laevis Aurora B/INCENP complex (Xenopus laevis)
Construct: equipped at the N-terminal position with a GST tag (amino acids 60-361); GST (N, cleaved yes)
Assay: Aurora-B kinase assay (radioactive enzyme inhibition)
pIC50: −log10 of the molar value.
readout-label: pIC50

compound: CNC(=O)c1cc(OC)c(Nc2ncc(C(F)(F)F)c(N[C@@H]3CCCC[C@H]3N(C)S(C)(=O)=O)n2)cc1Cl [Example I-135]
tested-target: Xenopus laevis Aurora B/INCENP complex (Xenopus laevis)
readout-label: pIC50
value-reported: 5.99

(I) COc1cc(C(=O)NC2CCN(C)CC2)c(Cl)cc1Nc1ncc(C(F)(F)F)c(N[C@@H]2CCC[C@H]2N(C)S(C)(=O)=O)n1 [Example I-131]
(II) COCCNC(=O)c1cc(OC)c(Nc2ncc(C(F)(F)F)c(N[C@@H]3CCCC[C@H]3N(C)S(C)(=O)=O)n2)cc1C [Example I-133]
Returns the identifier with the smallest measured pIC50 among I and II . I would appreciate it if you answered with the label of your choice.
II
(II: 5.66, I: 5.99)

====

Target: PTK2 enzyme (Homo sapiens, UniProt Q05397)
Construct: purchased Invitrogen PV3832
Sequence (Q05397 whole entry): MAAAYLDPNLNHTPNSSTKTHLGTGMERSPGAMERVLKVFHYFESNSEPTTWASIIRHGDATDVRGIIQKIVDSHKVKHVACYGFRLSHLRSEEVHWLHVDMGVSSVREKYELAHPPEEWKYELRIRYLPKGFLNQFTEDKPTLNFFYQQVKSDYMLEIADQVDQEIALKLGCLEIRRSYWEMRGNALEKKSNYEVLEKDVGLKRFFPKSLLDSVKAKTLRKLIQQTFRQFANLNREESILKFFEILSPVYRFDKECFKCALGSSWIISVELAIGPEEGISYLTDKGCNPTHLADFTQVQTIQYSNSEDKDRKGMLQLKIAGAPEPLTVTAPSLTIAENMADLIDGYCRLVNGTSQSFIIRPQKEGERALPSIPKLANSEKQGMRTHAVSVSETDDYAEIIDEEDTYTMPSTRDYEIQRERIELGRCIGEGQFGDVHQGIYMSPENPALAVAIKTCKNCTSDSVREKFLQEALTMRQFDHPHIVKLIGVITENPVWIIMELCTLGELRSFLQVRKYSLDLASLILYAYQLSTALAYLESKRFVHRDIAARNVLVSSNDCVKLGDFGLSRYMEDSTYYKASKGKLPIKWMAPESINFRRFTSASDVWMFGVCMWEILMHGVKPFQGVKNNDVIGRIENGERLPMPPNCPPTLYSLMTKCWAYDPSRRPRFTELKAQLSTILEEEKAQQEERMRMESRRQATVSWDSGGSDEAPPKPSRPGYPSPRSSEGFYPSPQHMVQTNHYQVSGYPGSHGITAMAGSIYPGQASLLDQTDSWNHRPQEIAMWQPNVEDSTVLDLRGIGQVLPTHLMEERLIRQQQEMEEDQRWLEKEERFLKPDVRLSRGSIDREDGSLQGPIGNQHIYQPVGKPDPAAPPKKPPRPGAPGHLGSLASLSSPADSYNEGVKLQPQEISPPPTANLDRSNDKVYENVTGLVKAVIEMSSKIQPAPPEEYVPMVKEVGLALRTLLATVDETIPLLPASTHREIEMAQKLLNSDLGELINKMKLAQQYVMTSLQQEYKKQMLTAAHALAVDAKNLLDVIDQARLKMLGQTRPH
Assay: PTK2 enzyme test, Assay 1 (DELFIA, poly-Glu-Tyr substrate, antibody PT60)
Format: biochemical
Conditions: Assay 1 (values without *); 1 h pre-incubation, 2% DMSO
readout-label: IC50 (nM)

(P) COc1cc(C(=O)NC2CCN(C)CC2)ccc1Nc1ncc(Br)c(N[C@@H]2CCCC[C@H]2NC(C)=O)n1
(Q) COc1ccccc1Nc1ncc(Cl)c(N[C@@H]2CCCC[C@H]2NC(C)=O)n1
Higher IC50 between P and Q ? Pick one and reply with its label.
Q
(Q: 9 nM, P: 1 nM)

(a) CON[C@@H]1CCCC[C@H]1Nc1nc(Nc2ccc(C(=O)NC3CCN(C)CC3)cc2OC)ncc1C(F)(F)F
(b) CCCC(=O)N[C@@H]1CCCC[C@H]1Nc1nc(Nc2ccc(C(=O)NC3CCN(C)CC3)cc2OC)ncc1C(F)(F)F
(c) COc1cc(C(=O)NCCN(C)C)ccc1Nc1ncc(Br)c(N[C@@H]2CCCC[C@H]2NC(C)=O)n1
Put the items in order so that reported IC50 rises from first to last. Put the labels in the requested order and write them down.
c, b, a

(I) COc1cc(C(=O)NC2CCN(C)CC2)c(F)cc1Nc1ncc(C(F)(F)F)c(N[C@@H]2CCCC[C@H]2NCC(=O)N(C)OC)n1
(II) COc1cc(C(=O)NC2CCN(C)CC2)ccc1Nc1ncc(C(F)(F)F)c(N[C@@H]2CCCC[C@H]2NC(=O)C(C)(C)C)n1
(III) COc1cc(C(=O)NOCCN(C)C)ccc1Nc1ncc(C(F)(F)F)c(N[C@@H]2CCCC[C@H]2N(C)S(C)(=O)=O)n1
Sort (3 molecules) by IC50: min first. Answer format: the labels, in the requested order.
III, II, I
(III: 0.93 nM, II: 4 nM, I: 6 nM)

====

Molecular target: PTK2 enzyme (Homo sapiens)
Construct: purchased Invitrogen PV3832
Assay: PTK2 enzyme test, Assay 2 (DELFIA, poly-Glu-Tyr substrate, antibody PT66)
Type: biochemical
Conditions: Assay 2 (values marked *); 1 h pre-incubation, 0.5% DMSO
readout-label: IC50 (nM)

Examples from the recorded data:
compound: COc1cc(F)c(C(=O)NC2CCOCC2)cc1Nc1ncc(C(F)(F)F)c(N[C@@H]2CCCC[C@H]2NS(C)(=O)=O)n1 [Example I-193]
unit-of-measurement: nM
IC50: 0.72
//
compound: COc1cc(NC(C)=O)c(F)cc1Nc1ncc(C(F)(F)F)c(N[C@@H]2CCCC[C@H]2N(C)S(C)(=O)=O)n1 [Example I-159]
unit-of-measurement: nM
IC50: 0.9
//
compound: COCCN1CCC(NC(=O)c2cc(OC)c(Nc3ncc(C(F)(F)F)c(N[C@@H]4CCC[C@H]4N(C)S(C)(=O)=O)n3)cc2F)CC1 [Example I-130]
unit-of-measurement: nM
IC50: 0.24
//
compound: COc1cc(NC(=O)C2CCN(C)CC2)ccc1Nc1ncc(C(F)(F)F)c(N[C@@H]2CCCC[C@H]2N(C)S(C)(=O)=O)n1 [Example I-155]
unit-of-measurement: nM
IC50: 0.93
//
compound: COc1cc(C(=O)NC2CCOCC2)c(C)cc1Nc1ncc(C(F)(F)F)c(N[C@@H]2CCC[C@H]2NS(C)(=O)=O)n1 [Example I-195]
unit-of-measurement: nM
IC50: 0.32
//
compound: CNC(=O)c1cc(OC)c(Nc2ncc(C(F)(F)F)c(N[C@@H]3CCCC[C@H]3NS(C)(=O)=O)n2)cc1C [Example I-152]
unit-of-measurement: nM
IC50: 0.41

(I) COc1ccc(C(=O)NC2CCN(C)CC2)cc1Nc1ncc(Cl)c(N[C@@H]2CCC[C@H]2N(C)S(C)(=O)=O)n1 [Example I-179]
(II) COc1cc(C(=O)NN2CCN(C)CC2)c(F)cc1Nc1ncc(C(F)(F)F)c(N[C@@H]2CCC[C@H]2N(C)S(C)(=O)=O)n1 [Example I-136]
Select the item whose IC50 value is smaller, choosing between I and II . Please respond with the label that marks your chosen entry.
II
(II: 0.28 nM, I: 0.46 nM)

(I) CNC(=O)c1cc(OC)c(Nc2ncc(C(F)(F)F)c(N[C@@H]3CCCC[C@H]3NS(C)(=O)=O)n2)cc1Cl [Example I-137]
(II) COc1cc(N2CCN(C(C)(C)C)CC2)c(C)cc1Nc1ncc(C(F)(F)F)c(N[C@@H]2CCC[C@H]2N(C)S(C)(=O)=O)n1 [Example I-140]
Which has the higher IC50, I or II ? Answer by stating the label of the chosen item.
II
(II: 0.86 nM, I: 0.44 nM)
